Hello, the source for this data is patent US9266832B2, in case you need it.

# System: M17-TAU P301L cells
# Experimental Protocol: Tau-induced toxicity experiment: LDH leakage of retinoic acid incubated M17-TAU P301L cells
# Format: cell-based
# Recorded Conditions: Homo sapiens, Neuroblastoma cell, 168 h; reduction of LDH activity of retinoic acid incubated M17-TAU P301L neuroblastoma cells, 7 days
Could you please report measured pEC50 for the items listed next?
Keep it numeric: pEC50 is minus log10 of the concentration in mol/L.

Give the reported value of pEC50 for this record: `O=C(NCCc1c[nH]c2ccc(Cl)cc12)c1cccc(Cc2cccc(Cl)c2)c1` 7.44

Give the reported value of pEC50 for this record: `N#Cc1ccccc1Cc1cccc(C(=O)NCCc2c[nH]c3ccc(Cl)cc23)c1` 6.94

Give the reported value of pEC50 for this record: `O=C(NCCc1c[nH]c2ccc(Cl)cc12)c1cccc(Cc2ccoc2)c1` 7.25

Give the reported value of pEC50 for this record: `Cc1ccc2[nH]cc(CCNC(=O)c3ccc(Cc4cccc(F)c4)cc3)c2c1` 7.59

Give the reported value of pEC50 for this record: `CN(c1ccccc1)c1cccc(C(=O)NCCc2c[nH]c3ccc(Cl)cc23)c1` 6.57

Give the reported value of pEC50 for this record: `O=C(NCCc1c[nH]c2ccc(Cl)cc12)c1cccc(Cc2cc(F)cc(F)c2)c1` 6.76

Give the reported value of pEC50 for this record: `N#Cc1cccc(Cc2ccc(C(=O)NCCc3c[nH]c4ccc(Cl)cc34)cc2)c1` 7.85

Give the reported value of pEC50 for this record: `COc1ccc(Cc2ccc(C(=O)NCCc3c[nH]c4ccc(Cl)cc34)cc2)cc1` 7.15

Give the reported value of pEC50 for this record: `O=C(NCCc1c[nH]c2ccc(Cl)cc12)c1ccc(Oc2ccccc2)cc1` 6.53

Give the reported value of pEC50 for this record: `O=C(NCc1c[nH]c2ccc(Cl)cc12)c1ccc(Cc2cc(F)cc(F)c2)cc1` 6.62

Give the reported value of pEC50 for this record: `O=C(NCCc1c[nH]c2ccc(Cl)cc12)c1ccc(Cc2ccc(Cl)cc2)cc1` 7.66

Give the reported value of pEC50 for this record: `Cc1[nH]c2ccc(Cl)cc2c1CCNC(=O)c1ccc(Cc2cccc(F)c2)cc1` 6.27

Give the reported value of pEC50 for this record: `O=C(NCCc1c[nH]c2ccc(Cl)cc12)c1cccc(Cc2ccc(Cl)cc2)c1` 7.30

Give the reported value of pEC50 for this record: `Cc1cccc(C)c1Cc1ccc(C(=O)NCCc2c[nH]c3ccc(Cl)cc23)cc1` 6.40

Give the reported value of pEC50 for this record: `O=C(NCCc1c[nH]c2ccc(Cl)cc12)c1ccc(Cc2ccccc2Cl)cc1` 7.19

Give the reported value of pEC50 for this record: `O=C(NCCc1c[nH]c2ccc(Cl)cc12)c1ccc(Cc2ccccc2F)cc1` 7.51

Give the reported value of pEC50 for this record: `O=C(NCCc1c[nH]c2ccc(Cl)cc12)c1ccc(Cc2cccc(F)c2)c(F)c1` 7.36

Give the reported value of pEC50 for this record: `O=C(NCCc1c[nH]c2ccc(Cl)cc12)c1ccc(Cc2cccs2)cc1` 7.09

Give the reported value of pEC50 for this record: `COc1cccc(Cc2cccc(C(=O)NCCc3c[nH]c4ccc(Cl)cc34)c2)c1F` 6.41

Give the reported value of pEC50 for this record: `O=C(NCCc1c[nH]c2ccc(Cl)cc12)c1cccc(CNCc2ccccc2)c1` 7.03

Give the reported value of pEC50 for this record: `Cc1cccc(Cc2ccc(C(=O)NCCc3c[nH]c4ccc(Cl)cc34)cc2)c1` 7.40

Give the reported value of pEC50 for this record: `O=C(NCCc1c[nH]c2ccc(Cl)cc12)c1ccc(Cc2cc(F)ccc2F)cc1` 7.31

Give the reported value of pEC50 for this record: `N#Cc1cccc(Cc2ccc(C(=O)NCc3c[nH]c4ccc(Cl)cc34)cc2)c1` 6.88

Give the reported value of pEC50 for this record: `COc1ccccc1Cc1ccc(C(=O)NCCc2c[nH]c3ccc(Cl)cc23)cc1` 7.08
